Numbers sourced from ChEMBL document CHEMBL4334540.

Kd values for the compounds below.
molecular target: Galectin-3 (Homo sapiens); experiment: Binding affinity at recombinant human Galectin 3 expressed in Escherichia coli BL21 incubated for 5 mins by fluorescence anisotropy assay; conditions: read-out: Kd
Sequence (P17931 whole entry): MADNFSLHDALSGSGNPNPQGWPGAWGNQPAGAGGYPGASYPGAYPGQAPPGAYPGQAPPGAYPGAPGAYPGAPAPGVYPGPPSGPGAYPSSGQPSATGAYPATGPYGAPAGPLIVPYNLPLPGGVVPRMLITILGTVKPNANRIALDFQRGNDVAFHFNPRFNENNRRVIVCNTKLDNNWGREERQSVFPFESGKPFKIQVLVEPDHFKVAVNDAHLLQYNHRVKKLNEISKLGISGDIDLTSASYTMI
Outcome Measure: Kd (µM)

In [3]: df
Out[3]:
                                        mol  outcome_measure  assay_result
0  COc1cccc(N[C@@H]2[C@@H](O)[C@@H](Sc3ccc(Cl)c(Cl)c3)O[C@H](CO)[C@@H]2O)c1               Kd            79
1  OC[C@H]1O[C@H](Sc2ccc(Cl)c(Cl)c2)[C@H](O)[C@@H](Nc2cccc(Cl)c2)[C@H]1O               Kd            81
2  Cc1ccc(N[C@@H]2[C@@H](O)[C@@H](Sc3ccc(Cl)c(Cl)c3)O[C@H](CO)[C@@H]2O)cc1C               Kd           170
3  COc1ccc(N[C@@H]2[C@@H](O)[C@@H](Sc3ccc(Cl)c(Cl)c3)O[C@H](CO)[C@@H]2O)cc1               Kd            79
